# Assayed system: PYR1^WIN (Arabidopsis thaliana, UniProt O49686, A160I/D26G/E4G/F159A/K59Q/Y23H)
# Test details: Split NanoLuc luciferase complementation in yeast, NLuc^N-PYR1^WIN/NLuc^C-ΔN-HAB1
# Format: cell-based
# Set-up: >PYR1-WIN; expressed in transfected cells; host or cells: Saccharomyces cerevisiae
Value kind: EC50 (nM)
Answers are plain numbers, in nM.

Find the recorded EC50 belonging to Cc1c(C(=O)c2cccc3ccccc23)c2cccc3c2n1C(CN1CCOCC1)CO3 (single isomer, unassigned; (+)) [WIN, (+)-WIN 55,212-2] and report it.
56

* * *

# Assayed system: PYR1^PIRI / HAB1 (Arabidopsis thaliana, UniProt O49686, A160T/E130G/F159T/K59R/N119S/S122Q/S92M/V174A)
# Sequence (O49686 with tags, fused parts or gaps K59R/S92M/N119S/S122Q/E130G/F159T/A160T/V174A): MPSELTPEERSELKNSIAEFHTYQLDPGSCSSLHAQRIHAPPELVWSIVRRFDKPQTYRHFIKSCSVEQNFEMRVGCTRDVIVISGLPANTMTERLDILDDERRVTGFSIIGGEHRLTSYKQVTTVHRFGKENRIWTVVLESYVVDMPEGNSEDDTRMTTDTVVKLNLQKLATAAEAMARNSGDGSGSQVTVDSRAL
# Test details: Ligand/receptor-mediated PP2C (HAB1 phosphatase) inhibition, PYR1^PIRI
Value kind: pEC50
Answers are plain numbers, as −log10 of the molar value.

# lookup: pEC50 of CCN(CC)c1nc(C)cc(OP(=S)(OC)OC)n1 [Pirimiphos-methyl, pirimiphos-methyl]
7.24

* * *

# Assayed system: PYR1^WIN (Arabidopsis thaliana, UniProt O49686, A160I/D26G/E4G/F159A/K59Q/Y23H)
# Test details: Yeast transcriptional activation circuit Z4-PYR1/VP64-ΔN-HAB1, GFP reporter, PYR1^WIN
Value kind: EC50 (nM)
Numbers only, in nM.

I have this molecule here, Cc1c(C(=O)c2cccc3ccccc23)c2cccc3c2n1C(CN1CCOCC1)CO3 (single isomer, unassigned; (+)) [WIN, (+)-WIN 55,212-2] , and I need its recorded EC50.
28

* * *

# Assayed system: PYR1^4F (Arabidopsis thaliana, UniProt O49686, A160G/F159V/H115Q/Y120G)
# Sequence (O49686 with tags, fused parts or gaps H115Q/Y120G/F159V/A160G): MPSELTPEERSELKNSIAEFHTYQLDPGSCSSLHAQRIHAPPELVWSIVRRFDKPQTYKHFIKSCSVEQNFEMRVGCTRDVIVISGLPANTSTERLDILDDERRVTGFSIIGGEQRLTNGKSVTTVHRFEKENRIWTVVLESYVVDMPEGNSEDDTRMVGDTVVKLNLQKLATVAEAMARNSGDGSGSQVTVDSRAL
# Sequence (Q9CAJ0 179-511 partner): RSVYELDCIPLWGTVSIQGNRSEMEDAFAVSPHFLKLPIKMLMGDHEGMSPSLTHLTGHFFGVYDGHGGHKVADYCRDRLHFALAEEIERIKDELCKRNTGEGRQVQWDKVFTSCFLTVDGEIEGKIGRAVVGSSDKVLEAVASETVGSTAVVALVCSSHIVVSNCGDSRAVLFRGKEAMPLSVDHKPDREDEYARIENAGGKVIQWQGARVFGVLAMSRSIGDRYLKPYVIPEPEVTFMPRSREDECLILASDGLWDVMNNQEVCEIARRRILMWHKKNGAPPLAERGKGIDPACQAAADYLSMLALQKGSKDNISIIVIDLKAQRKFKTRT
# Test details: Split NanoLuc luciferase complementation in yeast, NLuc^N-PYR1^4F/NLuc^C-ΔN-HAB1
# Assay type: cell-based
# Set-up: >PYR1-4FMDMB; expressed in transfected cells; host or cells: Saccharomyces cerevisiae BY4742
Value kind: pEC50
Numbers only, as −log10 of the molar value.

What value of pEC50 has been recorded for this entry: COC(=O)C(NC(=O)c1nn(CCCCF)c2ccccc12)C(C)(C)C (stereo not shown)
7.60
